Tested on: NCI-H322M lung
ASSAY: NCI-60 one-dose screen, 48 h (100 = growth as untreated, 0 = no growth, -100 = all killed)
MEASUREMENT_CONDITIONS: 10 µM unless noted
Compounds without any hit were thinned out: in the full panel of roughly 83,000, 20% have a hit.
MEASURE_NAME: growth (%)

COMPOUND	OBSERVED
O=C(CCCCCCCCC(=O)Nc1cccc(C2=NCCN2)c1)Nc1cccc(C2=NCCN2)c1	105
Cc1[nH]c2ncnc(Oc3ccc(NC(=O)Nc4ccc(Cl)c(C(F)(F)F)c4)cc3)c2c1C	69.6
CN(C)[C@@H]1C(=O)C(C(N)=O)=C(O)[C@@]2(O)C(=O)C3=C(O)c4c(O)cc(CN5CCc6ccccc6C5)c(Cl)c4C[C@H]3C[C@@H]12	-87.2
CCOc1ccc(C2N(c3cc(OC)c(OC)c(OC)c3)C(=O)C2(F)F)cc1 (centres undefined)	67.2

---

System: NCI-H522 lung
ASSAY: NCI-60 one-dose screen, 48 h
MEASUREMENT_CONDITIONS: 10 µM unless noted
Compounds without any hit were thinned out: in the full panel of roughly 83,000, 20% have a hit. Calls of active or inactive are those of the source. How the source made its calls: active means growth percent below 10; inactive means the rest.
Outcome codes: active, inactive

COMPOUND	CLASSIFICATION
COc1cc(C2=NNC(c3ccc(N(C)C)cc3)C2)cc(OC)c1OC (stereo not given)	active
COc1cc(C)ccc1Oc1nc(Nc2ccc(N3CCOCC3)cc2)ncc1N=Cc1cc(C(F)(F)F)cc(C(F)(F)F)c1	inactive
CN(C)[C@@H]1C(=O)C(C(N)=O)=C(O)[C@@]2(O)C(=O)C3=C(O)c4c(O)cc(CN5CCc6ccccc6C5)c(Cl)c4C[C@H]3C[C@@H]12	active
C=C1C(=O)O[C@H]2[C@H]1CC/C(COC(=O)/C=C/c1cccnc1)=C\CC[C@@]1(C)O[C@@H]21	active
O=C(Nc1nccs1)c1noc2ccccc12	inactive
Cc1nc2sc(C(=O)Nc3cccc4ccccc34)c(N)c2cc1C(C)O (stereo not given)	active
O=C1NC(c2ccc(F)cc2)N=C2C(c3ccccc3)=NOC12 (stereo not given)	inactive
NCCN1CCNCC1	inactive
CSc1nc(-c2ccc(F)cc2)c(C#N)c(N2CCOCC2)n1	inactive
C/C(=N\NC(=O)c1ccncc1)c1ccc(N)cc1	inactive

---

System: MDA-MB-231 breast
ASSAY: NCI-60 one-dose screen, 48 h
MEASUREMENT_CONDITIONS: 10 µM unless noted
About 83,000 compounds went through this panel and 20% of them were active in at least one assay; those are over-represented in the sample as a whole. Active and inactive are the calls of the source. The calls were made as follows: active = growth percent below 10; inactive = the rest.
Outcomes: y = active, n = inactive

SMILES	CLASSIFICATION
COc1ccc(-n2cc(COc3ccc4c5ccnc(C)c5n(CC(C)C)c4c3)nn2)cc1	n
C#Cc1ccccc1NC(=O)c1sc2nc3c(cc2c1N)CCCCCC3	y
Cc1cccc(NC(=O)c2sc3nc4c(cc3c2N)CN(Cc2ccccc2)CC4)c1C	n
CC1(C)[C@@H](O)CC[C@]2(C)[C@H]3CC[C@@H]4[C@H]5[C@H](c6cn(-c7ccccc7)nn6)CC[C@]5(CO)CC[C@@]4(C)[C@]3(C)CC[C@@H]12	n

---

Test system: PC-3 prostate
ASSAY: NCI-60 one-dose screen, 48 h (100 = growth as untreated, 0 = no growth, -100 = all killed)
MEASUREMENT_CONDITIONS: 10 µM unless noted
The panel holds about 83,000 compounds, 20% with a hit somewhere; the sample as a whole holds those more often.
List of growth values.

MOLECULE	growth / %
Nc1ccc(C(=O)Nc2cccc(C(=O)Nc3ccc4c(O)c(N=Nc5ccc(N=Nc6ccc(S(=O)(=O)O)cc6)cc5)c(S(=O)(=O)O)cc4c3)c2)cc1	98.2
Cc1cc(C)nc(NS(=O)(=O)c2ccc(Nc3ccc4c5c(n(CCCN(C)C)c(=O)c4c3)-c3ccccc3C5=O)cc2)n1	86.3
CCCCc1n(Cc2ccc3ccccc3c2)c2ccccc2[n+]1Cc1ccc2ccccc2c1	-76.8
O=c1cc(/C=N\Nc2nc(-c3ccc(Cl)cc3Cl)cs2)c2cc(Cl)ccc2o1	80.1
Cc1cccc(C)c1NCc1nnc(-c2ccco2)o1	81
Sc1cccc2cccnc12	43.7
CCc1n(Cc2ccc3ccccc3c2)c2ccccc2[n+]1Cc1ccc2ccccc2c1	52.9
Nc1c(C(=O)c2ccccc2)sc2nc(-c3cc4ccccc4o3)cc(-c3ccc(Cl)cc3)c12	87.5
CN(CCC#N)C(=O)Nc1ccccc1	99.5
Cc1ccc(C2CC(c3ccc(Nc4nc(NCCO)nc(NCCO)n4)cc3)=NN2c2ccc(Cl)cc2)cc1 (stereo not given)	33.5

---

Test system: SF-539 CNS
ASSAY: NCI-60 one-dose screen, 48 h
MEASUREMENT_CONDITIONS: 10 µM unless noted
About 83,000 compounds went through this panel and 20% of them were active in at least one assay; those are over-represented in the sample as a whole. Activity calls are given as the source filed them. How the source made its calls: active means growth percent below 10; inactive means the rest.
Classes used: 1 (active), -1 (inactive)

COMPOUND	CLASSIFICATION
O=C1NC(c2ccc(F)cc2)N=C2C(c3ccccc3)=NOC12 (stereo not drawn)	-1
CN(C)[C@@H]1C(=O)C(C(N)=O)=C(O)[C@@]2(O)C(=O)C3=C(O)c4c(O)cc(CN5CCc6ccccc6C5)c(Cl)c4C[C@H]3C[C@@H]12	1
CCCCc1n(Cc2ccc3ccccc3c2)c2ccccc2[n+]1Cc1ccc2ccccc2c1	1
O=C1c2ccccc2C(=O)c2c1oc1c2c(=O)[nH]c2ccccc21	-1
COc1ccc(OCC(=O)OC(C)C)cc1	-1
COCCOC(=O)COc1ccc(OC)cc1	-1
Cc1nccc2c3ccc(OCc4cn(-c5ccc(Cl)cc5)nn4)cc3n(CC(C)C)c12	-1
COc1ccc2nc3c(n2c1)C(=O)C(=O)c1ccccc1-3	1
O=C(Nc1nccs1)c1noc2ccccc12	-1
CC(C)C[C@H](C(=O)O)N(C)C(=O)[C@@H]1CCCN1C(=O)[C@H](C)OC(=O)[C@H](CCC(N)=O)NC(=O)[C@@H]1CCC(=O)N1	-1
Cc1nc2sc(C(=O)Nc3ccccc3Cl)c(N)c2cc1C(C)O (stereo not drawn)	-1
N#CCNc1ccc(C(=O)O)cc1	-1
COc1ccc2nc3nc4ccc[nH]c4cc3c2c1	-1
C#C[C@@]1(O)[C@@H](CO)O[C@@H](n2cc(Br)c3c(N)ncnc32)[C@@H]1O	1
CCCn1c2cc(OCc3cn(-c4ccc(Cl)cc4)nn3)ccc2c2ccnc(C)c21	-1
O=C(Nc1cc(Br)ccn1)c1cc2cc(Nc3nc(-c4ccccc4)nc4ccccc34)ccc2oc1=O	-1
C=CCn1c(SCC(=O)Nc2ccc(C(=O)/C=C/c3cc(OC)c(OC)c(OC)c3)cc2)nnc1-c1ccccc1	-1
CC(C)NS(=O)(=O)c1cccc(-c2ccc3c4c(n(CCCN(C)C)c(=O)c3c2)-c2ccccc2C4=O)c1	-1
C=C1C(=O)O[C@H]2[C@H]1CC/C(COC(=O)/C=C/c1cccnc1)=C\CC[C@@]1(C)O[C@@H]21	1
O=C1Nc2ccccc2C12C=C(c1ccccc1)Nc1c2c(-c2ccccc2)nn1-c1ccccc1 (stereo not drawn)	-1
COc1ccc(C(=O)c2cc(OC)c(OC)c(OC)c2)cc1OC(=O)C(Cl)(Cl)Cl	1
CNCc1cccc2c1OCCOCCOCCN(CCN1CCOCC1)S(=O)(=O)c1ccc(cc1)-c1cnc(N)c(n1)C(=O)N2	-1
O=Cc1[nH]c(Sc2ccccc2)c2ccccc12	-1
COC(=O)c1nc(-c2ccccc2)oc1S(=O)(=O)n1nc(C)cc1N	-1
CCc1c(C(=O)N[C@@H](C(=O)OCc2ccccc2)C(C)O)[nH]c2ccc(Cl)cc12 (stereo partly drawn)	-1
COC(=O)/C=C1\SC(=Nc2cccc(Cl)c2)N(CCc2c[nH]c3ccccc23)C1=O	-1
N#Cc1ccc(C2C3=C(CCCC3=O)OC3=C2C(=O)c2ccccc2C3=O)cc1 (stereo not drawn)	-1
CN(C)c1ccc(-c2ccc3[nH]c(=O)nc(-c4ccc(F)cc4)c3c2)cn1	-1
C=C1C(=O)O[C@H]2[C@H]1CC/C(C=Nc1c(N)cc(C(F)(F)F)cc1Br)=C\CC[C@@]1(C)O[C@@H]21	-1
COC(=O)c1oc2c(C(=O)/C=C/c3ccc(OC)cc3)c(OCCCN3CCCCC3)ccc2c1C	1
CC(=O)OCC1OC(OC2C(COC(C)=O)OC(OCCC[S-])C(OC(C)=O)C2OC(C)=O)C(OC(C)=O)C(OC(C)=O)C1OC(C)=O.[Au+].c1ccc(CN2[CH-]N(Cc3ccccc3)C(c3ccccc3)=C2c2ccccc2)cc1 (stereo not drawn)	-1
OCCNc1nc(NCCO)nc(Nc2ccc(C3=NN(c4cc(Cl)cc(Cl)c4)C(c4ccc(C(F)(F)F)cc4)C3)cc2)n1 (stereo not drawn)	-1
Nc1c(C(=O)Nc2cccc3ccccc23)sc2nc3c(cc12)CCCCCC3	1
Cc1cccc(C)c1NCc1nnc(-c2ccc(O)cc2)o1	-1
O=C1C(Cl)=C(NCCCN(CCCNC2=C(Cl)C(=O)c3ccccc3C2=O)C2=C(Cl)C(=O)c3ccccc3C2=O)C(=O)c2ccccc21	-1
CCOC(=O)NCCc1nc2c([nH]1)c(=O)n(C)c(=O)n2C	-1
O=C(/C(=C/c1ccc([N+](=O)[O-])cc1)SCc1ccccc1)c1ccc(Cl)cc1	-1
C/C(=N/Nc1nc2ccccc2n1C)c1ccccn1	1
